The reported measurements were obtained from patent US12428446B2.

assay: Evaluation of dissolution stability (content change on storage in dissolved state); type: physicochemical; settings: 1 mg/1 ml dissolved state, 40° C. and RH 75%, day 7
Where no end group is shown, it is not given here. [ ]: non-standard residue; d: D form. Pro(4-methylene) = C=C1CN[C@H](C(=O)O)C1; Hyp = O=C(O)[C@@H]1C[C@@H](O)CN1
Hi there, I'd appreciate the recorded Day 7 content (%) for every entry that follows.
One number for each entry, in %.

SUBSTANCE: 4-methylene-Pro-Gly-Gln-Asp-Gly-Leu ([Pro(4-methylene)]GQDGL) [Example 49]
PROPERTY LABEL: Day 7 content (%)
MEASURED VALUE: 60.01
--
SUBSTANCE: Hyp-Gly-Gln-Asp (isopropyl ester)-Gly-Leu (isopropyl ester) [Example 112]
PROPERTY LABEL: Day 7 content (%)
MEASURED VALUE: 80.91
--
SUBSTANCE: Hyp-Gly-Gln-Asp-Val-Leu [Example 34] ([Hyp]GQDVL)
PROPERTY LABEL: Day 7 content (%)
MEASURED VALUE: 91.59

# input substance: Hyp-Gly-Gln-Asp-Gly-Pro-Lys ([Hyp]GQDGPK) [Example 28] ; wanted: its Day 7 content (%)
96.19

* * *

assay: Evaluation of dissolution stability (content change on storage in dissolved state); type: physicochemical; settings: 1 mg/1 ml dissolved state, 40° C. and RH 75%, day 1
*1 amine or outer side, *2 acyl side, *3 side chain or, on linkers, in order; H or OH if unused. Primed or numbered codes have the meaning given here. Where no end group is shown, it is not given here. [ ]: non-standard residue; d: D form. The star is where a group is joined. Pro(trans-4-NH2) = O=C([C@@H]1C[C@@H](N[*:3])CN1[*:1])[*:2]; Pro(4,4-F2) = O=C(O)[C@@H]1CC(F)(F)CN1; Asu′ = aspartimide (aminosuccinimide); Hyp = O=C(O)[C@@H]1C[C@@H](O)CN1; OiPr = CC(C)O*
Hi there, I'd appreciate the recorded Day 1 content (%) for every entry that follows.
Answer format reminder: number followed by unit.

SUBSTANCE: Hyp-Gly-Gln-D Asp-Leu ([Hyp]GQ[dD]L) [Example 125]
Day 1 content (%): 97.15%
--
SUBSTANCE: 4,4-difluoro-Pro-Gly-Gln-Asp-Gly-Leu ([Pro(4,4-F2)]GQDGL) [Example 48]
Day 1 content (%): 84.40%
--
SUBSTANCE: 4,4-difluoro-Pro-Gly-Gln-Asp-Gly-Leu-Ala ([Pro(4,4-F2)]GQDGLA) [Example 53]
Day 1 content (%): 87.14%
--
SUBSTANCE: Hyp-Gly-Gln-Asp-Gly-Leu-Ala (isopropyl ester) ([Hyp]GQDGLA-OiPr) [Example 108]
Day 1 content (%): 67.07%
--
SUBSTANCE: Gln-Asu-Gly-Leu-Ala-Gly (Q[Asu′]GLAG) [Example 118]
Day 1 content (%): 92.71%
--
SUBSTANCE: DGLAGPK [Example 19]
Day 1 content (%): 89.94%

Could you report Day 1 content (%) for every entry in the following list?
1. trans-4NH2-Pro-Gly-Gln-Asp-Gly ([Pro(trans-4-NH2)]GQDG) [Example 42]
2. Hyp-Gly-Gln-Asp-Val-Leu [Example 22] ([Hyp]GQDVL)
3. Hyp-Gly-Gln-Asp-Val ([Hyp]GQDV) [Example 21]

65.09%
85.47%
79.91%

* * *

Hi there, I'd appreciate the recorded Day 1 content (%) for every entry that follows.
assay: Evaluation of dissolution stability (content change on storage in dissolved state); format: physicochemical; details: 1 mg/1 ml dissolved state, 40° C. and RH 75%, day 1
Where no end group is shown, it is not given here. [ ]: non-standard residue; d: D form. Hyp = O=C(O)[C@@H]1C[C@@H](O)CN1
Give bare numbers, in %.

SUBSTANCE: Hyp-Gly-Gln-Glu-Gly-Leu ([Hyp]GQEGL) [Example 68]
Day 1 content (%): 98.25

SUBSTANCE: Hyp-Gly-Gln-Asp-Leu-Leu-Ala ([Hyp]GQDLLA) [Example 38]
Day 1 content (%): 92.19

Could you report Day 1 content (%) for every entry in the following list?
1. Hyp-Gly-Gln-Asp-Leu-Leu ([Hyp]GQDLL) [Example 35]
2. Hyp-Gly-Gln-Asp-Gly-Leu-Ala ([Hyp]GQDGLA) [Example 12]

97.50
89.90

* * *

assay: Evaluation of dissolution stability (content change on storage in dissolved state); type: physicochemical; conditions: 1 mg/1 ml dissolved state, 40° C. and RH 75%, day 7
Where no end group is shown, it is not given here. [ ]: non-standard residue; d: D form. Pro(4,4-Me2) = CC1(C)CN[C@H](C(=O)O)C1; Hyp = O=C(O)[C@@H]1C[C@@H](O)CN1; Aib = CC(C)(N)C(=O)O
PROPERTY LABEL: Day 7 content (%)
Numbers only, in %.

Could you report Day 7 content (%) for every entry in the following list?
1. GQDGLA [Example 29]
2. Hyp-Val-Gln-Asp-Gly ([Hyp]VQDG) [Example 74]
3. Hyp-Gly-Gln-Leu-Val-Leu ([Hyp]GQLVL) [Example 99]
4. 4,4-dimethyl Pro-Gly-Gln-Asp-Gly-Leu-Ala ([Pro(4,4-Me2)]GQDGLA) [Example 57]
5. Hyp-Gly-Gln-Asp-Aib ([Hyp]GQD[Aib]) [Example 85]
6. QEGLAG [Example 70]
7. Hyp-Gly-Gln-Ala-Gly-Leu-Ala ([Hyp]GQAGLA) [Example 14]

1: 90.82; 2: 79.66; 3: 99.15; 4: 53.88; 5: 75.04; 6: 85.77; 7: 95.55

* * *

experiment: Evaluation of dissolution stability (content change on storage in dissolved state); format: physicochemical; settings: 1 mg/1 ml dissolved state, 40° C. and RH 75%, day 3
Primed or numbered codes have the meaning given here. Where no end group is shown, it is not given here. [ ]: non-standard residue; d: D form. Pro(cis-4-F) = O=C(O)[C@@H]1C[C@H](F)CN1; Asu′ = aspartimide (aminosuccinimide); Hyp = O=C(O)[C@@H]1C[C@@H](O)CN1
Please assign FALSE whenever Day 3 content (%) is at or above 90%, and TRUE whenever it is below.

Look over these answered cases.
SUBSTANCE: Hyp-Gly-Gln-Asu-Gly ([Hyp]GQ[Asu′]G) [Example 100]
CATEGORY: TRUE
//
SUBSTANCE: Pro-Gly-Gln-Asp-Gly (PGQDG) [Example 76]
CATEGORY: TRUE
//
SUBSTANCE: DGLAGPK [Example 19]
CATEGORY: TRUE
//
SUBSTANCE: Asu-Gly-Leu-Ala-Gly-Pro-Lys ([Asu′]GLAGPK) [Example 105]
CATEGORY: TRUE
//
SUBSTANCE: cis-4F-Pro-Gly-Gln-Asp-Gly-Leu ([Pro(cis-4-F)]GQDGL) [Example 46]
CATEGORY: TRUE

Continue with the next substance.
Please let me know if Hyp-Gly-Gln-D Asp-Gly ([Hyp]GQ[dD]G) [Example 59] shows Day 3 content (%) below 90%.
FALSE

* * *

Hi there, I'd appreciate the recorded Day 7 content (%) for every entry that follows.
experiment: Evaluation of dissolution stability (content change on storage in dissolved state); type: physicochemical; conditions: 1 mg/1 ml dissolved state, 40° C. and RH 75%, day 7
Primed or numbered codes have the meaning given here. Where no end group is shown, it is not given here. [ ]: non-standard residue; d: D form. Asu′ = aspartimide (aminosuccinimide); Hyp = O=C(O)[C@@H]1C[C@@H](O)CN1; dHyp = O=C(O)[C@H]1C[C@H](O)CN1; Tle = CC(C)(C)[C@H](N)C(=O)O
Give bare numbers, in %.

SUBSTANCE: D Hyp-Gly-Gln-Asp-Gly-Leu ([dHyp]GQDGL) [Example 45]
SCALE UNIT: %
Day 7 content (%): 56.03

Could you report Day 7 content (%) for every entry in the following list?
1. Hyp-Gly-Gln-Ala-Leu ([Hyp]GQAL) [Example 120]
2. Asu-Gly-Leu-Ala-Gly-Pro-Lys ([Asu′]GLAGPK) [Example 105]
3. Hyp-Gly-Gln-Glu-Gly-Leu ([Hyp]GQEGL) [Example 68]
4. Hyp-Gly-Gln-Glu-tert Leu-Leu-Ala ([Hyp]GQE[Tle]LA) [Example 93]

1. 98.44
2. 31.24
3. 96.93
4. 97.79
